ASSAY_SYSTEM: human neutrophil elastase (HNE) (Homo sapiens, UniProt P08246)
Sequence (P08246 30-247 limits assumed): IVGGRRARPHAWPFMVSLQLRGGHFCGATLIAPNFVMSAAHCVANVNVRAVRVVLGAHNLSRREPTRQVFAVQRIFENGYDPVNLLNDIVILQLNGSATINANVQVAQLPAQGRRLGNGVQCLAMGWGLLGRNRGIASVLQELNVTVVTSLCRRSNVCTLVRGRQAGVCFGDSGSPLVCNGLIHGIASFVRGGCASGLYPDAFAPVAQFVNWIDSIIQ
PROCEDURE_SUMMARY: HNE enzyme activity assay (fluorogenic peptide substrate MeOSuc-Ala-Ala-Pro-Val-AMC)
CONDITION_LABEL: human leukocyte elastase 0.00072 U/mL, substrate 100 μM, 25° C., 30 minutes, pH 7.5; at least two separate experiments; read-out: FINE inhibition (HNE enzyme inhibition, IC50 values)
pIC50: −log10 of the molar value.
VALUE_KIND: pIC50

*Q* Please supply the value of reported pIC50 for the item Cc1c(-c2ccnn2-c2ccc(C#N)cc2)n(C(=O)N[C@@H]2CCN(C)C2)c(=O)n1-c1cccc(C(F)(F)F)c1 [Example 46]
*A* > 9.00

*Q* Tell me measured pIC50 for COCCNC(=O)n1c(-c2ccnn2-c2ccc(C#N)cc2)c(C)n(-c2cccc(C(F)(F)F)c2)c1=O [Example 11] please.
*A* > 9.00

*Q* Please look at this compound and report its pIC50: Cc1c(-c2ccnn2-c2ccc(C#N)cc2)n(C(=O)NCCS(C)(=O)=O)c(=O)n1-c1cccc(C(F)(F)F)c1 [Example 13]
*A* > 9.00

*Q* Output measured pIC50 for this item: Cc1c(-c2ccnn2-c2ccc(C#N)cc2)n(CC(=O)N(C)C2CCC2)c(=O)n1-c1cccc(C(F)(F)F)c1 [Example 40]
*A* 8.00 to 9.00

*Q* Hello, please tell me recorded pIC50 for this one: Cc1c(-c2ccnn2-c2ccc(C#N)cc2)n(CCCS(C)(=O)=O)c(=O)n1-c1cccc(C(F)(F)F)c1 [Example 2]
*A* 8.00 to 9.00

*Q* Check the records and state pIC50 for Cc1c(-c2ccnn2-c2ccc(C#N)cc2)n(C(=O)NCc2ccccn2)c(=O)n1-c1cccc(C(F)(F)F)c1 [Example 49]
*A* 8.00 to 9.00

*Q* Hello, please tell me recorded pIC50 for this one: Cc1c(-c2ccnn2-c2ccc(C#N)cc2)n(C(=O)NCc2cnccn2)c(=O)n1-c1cccc(C(F)(F)F)c1 [Example 52]
*A* 8.00 to 9.00

*Q* Fill in reported pIC50 for this entry: Cc1c(-c2ccnn2-c2ccc(C#N)cc2)n(C(=O)NCCCO)c(=O)n1-c1cccc(C(F)(F)F)c1 [Example 8]
*A* > 9.00

*Q* Recall and state the measured pIC50 for Cc1c(-c2ccnn2-c2ccc(C#N)cc2)n(C(=O)NCCC[N+](C)(C)C)c(=O)n1-c1cccc(C(F)(F)F)c1 [Example 24] .
*A* 8.00 to 9.00

*Q* Specify reported pIC50 for the compound shown: Cc1c(-c2ccnn2-c2ccc(C#N)cc2)[nH]c(=O)n1-c1cccc(C(F)(F)F)c1 [Example 1]
*A* 7.30 to 8.00

*Q* Return pIC50 (reported value) for this compound: Cc1c(-c2ccnn2-c2ccc(C#N)cc2)n(C(=O)NC2CCOC2)c(=O)n1-c1cccc(C(F)(F)F)c1 (stereo not drawn) [Example 14]
*A* > 9.00

*Q* Hello, please tell me recorded pIC50 for this one: Cc1c(-c2ccnn2-c2ccc(C#N)cc2Br)n(C(=O)NC2CCCC2)c(=O)n1-c1cccc(C(F)(F)F)c1 [Example 56]
*A* 8.00 to 9.00

*Q* Specify measured pIC50 for Cc1c(-c2ccnn2-c2ccc(C#N)cc2)n(C(=O)NC2CCC2)c(=O)n1-c1cccc(C(F)(F)F)c1 [Example 41] .
*A* > 9.00

*Q* Please give measured pIC50 of the following entry: Cc1c(-c2ccnn2-c2ccc(C#N)cc2)n(S(=O)(=O)NC2CCCC2)c(=O)n1-c1cccc(C(F)(F)F)c1 [Example 34]
*A* > 9.00

*Q* For the compound CC(=O)n1c(-c2ccnn2-c2ccc(C#N)cc2)c(C)n(-c2cccc(C(F)(F)F)c2)c1=O [Example 5] , give its measured pIC50 value.
*A* 8.00 to 9.00
